Biological target: T1, GLP-1R (INS1e assay) (UniProt P32301 22-463, limits assumed)
T1 sequence (looked up): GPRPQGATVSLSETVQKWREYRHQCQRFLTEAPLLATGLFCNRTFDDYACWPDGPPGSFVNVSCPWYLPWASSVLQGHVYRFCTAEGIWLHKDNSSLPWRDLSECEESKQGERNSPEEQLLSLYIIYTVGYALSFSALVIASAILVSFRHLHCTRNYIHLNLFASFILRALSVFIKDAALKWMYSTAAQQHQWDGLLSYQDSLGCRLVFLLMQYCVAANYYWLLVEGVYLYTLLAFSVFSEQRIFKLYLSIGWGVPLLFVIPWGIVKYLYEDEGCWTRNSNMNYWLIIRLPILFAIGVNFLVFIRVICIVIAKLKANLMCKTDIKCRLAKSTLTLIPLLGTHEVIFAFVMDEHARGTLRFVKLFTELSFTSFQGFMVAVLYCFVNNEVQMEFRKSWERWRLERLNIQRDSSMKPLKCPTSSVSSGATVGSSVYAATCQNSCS
Test: cell-based or functional assay
Starred links: 1 amine or outer side, 2 acyl side, 3 side chain; linkers in the order of their positions; H or OH if unused. Non-standard residues stand in square brackets, D forms with d. Groups on a side chain read outwards from the residue. Primed or numbered codes have the meaning given here. No end group written: not given here. *: point of attachment. γGlu = O=C(O)[C@H](CCC(=O)[*:2])N[*:1]; Stearoyl = CCCCCCCCCCCCCCCCCC(=O)*; αMeF = C[C@](N)(Cc1ccccc1)C(=O)O; αMeK = C[C@](N)(CCCCN)C(=O)O; Lauroyl = CCCCCCCCCCCC(=O)*; αMeS = C[C@](N)(CO)C(=O)O; PEG2′ = not defined here; Aib = CC(C)(N)C(=O)O
MEASURE NAME: INS1e assay EC50 GLP-1 R n1 (nM)

H[Aib]EGS[αMeF]TSDV[αMeS]S[αMeF]LEGEAAK([PEG2′-PEG2′-γGlu-Stearoyl])E[αMeF]IA[αMeF]VVKGG-NH2 [SEQ ID NO 50] : 22.1
H[Aib]EGS[αMeF]TSDV[αMeS]S[αMeF]LEGEAA[αMeK]E[αMeF]IA[αMeF]VVK([PEG2′-PEG2′-Lauroyl])GG-NH2 [SEQ ID NO 171] : 0.0817
H[Aib]EGS[αMeF]TSDV[αMeS]S[αMeF]LEGEAAK([PEG2′-PEG2′-Lauroyl])E[αMeF]IA[αMeF]VV[αMeK]GG-NH2 [SEQ ID NO 135] : 0.0986
H[Aib]EGS[αMeF]TSDV[αMeS]S[αMeF]LEGEAA[αMeK]E[αMeF]IA[αMeF]VVK([PEG2′-PEG2′-PEG2′-Stearoyl])GG-NH2 [SEQ ID NO 199] : 0.787
H[Aib]EGS[αMeF]TSDV[αMeS]S[αMeF]LEGK([PEG2′-PEG2′-γGlu-Stearoyl])AA[αMeK]E[αMeF]IA[αMeF]VV[αMeK]GG-NH2 [SEQ ID NO 112] : 0.294
H[Aib]EGS[αMeF]TSDV[αMeS]S[αMeF]LEGEAAAEFIK([PEG2′-PEG2′-γGlu-Stearoyl])WVVEGG-NH2 [SEQ ID NO 69] : 19.2

(A) H[Aib]EGS[αMeF]TSDV[αMeS]S[αMeF]LEK([PEG2′-PEG2′-γGlu-Stearoyl])EAA[αMeK]E[αMeF]IA[αMeF]VV[αMeK]GG-NH2 [SEQ ID NO 113]
(B) H[Aib]EGS[αMeF]TSDV[αMeS]S[αMeF]LEGEAA[αMeK]E[αMeF]IA[αMeF]VK([PEG2′-PEG2′-γGlu-Stearoyl])[αMeK]GG-NH2 [SEQ ID NO 102]
(C) H[Aib]EGS[αMeF]TSDV[αMeS]S[αMeF]LEGEAA[αMeK]K([PEG2′-PEG2′-γGlu-Stearoyl])[αMeF]IA[αMeF]VV[αMeK]GG-NH2 [SEQ ID NO 108]
Problem: Ordering: ascending INS1e assay EC50 GLP-1 R n1. Please write the labels in the order that was asked for.
Result: C, A, B
